subject-of-test: human thyroid receptor alpha ligand-binding domain (LBD) (Homo sapiens, UniProt P10827)
Construct: purchased Invitrogen
Sequence (P10827 163-410 isoform P10827-2 limits assumed, other chains not shown): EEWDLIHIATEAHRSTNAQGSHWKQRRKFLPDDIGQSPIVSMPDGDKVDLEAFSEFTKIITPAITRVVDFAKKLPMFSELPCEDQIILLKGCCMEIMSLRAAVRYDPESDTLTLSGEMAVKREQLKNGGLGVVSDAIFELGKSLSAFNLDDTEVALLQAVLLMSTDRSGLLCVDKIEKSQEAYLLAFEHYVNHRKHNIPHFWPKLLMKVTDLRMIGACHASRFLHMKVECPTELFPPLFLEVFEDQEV
measurement-description: TR-FRET thyroid receptor alpha coactivator assay (THR biochemical assay, Assay 1)
study-conditions: Table 4, THR-alpha, read-out: Activity category Assay 1 (EC50, THR-alpha agonist activity)

[
  {
    "molecule": "Nc1nn(-c2cc(Cl)c(Oc3cc(Cc4ccccc4)c(=O)[nH]n3)c(Cl)c2)c(=O)[nH]c1=O [Compound 65]",
    "EC50": "0.25 to 1 µM"
  },
  {
    "molecule": "Nc1nn(-c2cc(Cl)c(Oc3cc(-c4ccc5ccnn5c4)c(=O)[nH]n3)c(Cl)c2)c(=O)[nH]c1=O [Compound 122]",
    "EC50": "1 to 25 µM"
  },
  {
    "molecule": "Nc1nn(-c2cc(Cl)c(Oc3n[nH]c(=O)cc3-c3ccc4ccccc4c3)c(Cl)c2)c(=O)[nH]c1=O [Compound 67-A]",
    "EC50": "> 25 µM"
  }
]
